# Tested on: HL-60
# protocol_details: NCI tumour cell line growth inhibition, 48 h
Activity calls are given as the source filed them. No stated cut-off is given here; in the data, active = GI50 up to about 1.1 µM and inactive = higher.
Permitted responses: TRUE for active, FALSE for inactive

As a guide, the following entries are already answered.
- compound: "Cc1cc(C)nc(NS(=O)(=O)c2ccc(Nc3c4ccccc4nc4c(C(=O)NCCN(C)C)cccc34)cc2)n1"
  category: "FALSE"
- compound: "Clc1nc(-[n+]2ccc(-c3ccncc3)cc2)nc(Nc2ccccc2)c1Cl"
  category: "FALSE"
- compound: "C=C1C(=O)O[C@@H]2[C@H](O)[C@@H](C)[C@@H]3C=CC(=O)[C@@]3(C)[C@@H](OC(=O)/C(C)=C/C)[C@H]12"
  category: "TRUE"
- compound: "COc1ccc(-c2oc3c(OC)c(OC)cc(O)c3c(=O)c2OC)cc1"
  category: "FALSE"
- compound: "Nc1nc2c(c(=O)[n-]1)[n+](CCO)cn2C1OC(CO)C(O)C1O (stereo not drawn)"
  category: "FALSE"

Ask | Status in this test for CC(C)CC(CNC(Cc1ccc(Cl)cc1)C(N)=O)NC(=O)C(Cc1c[nH]cn1)NC(=O)CNC(=O)C(NC(=O)C(C)NC(=O)C(Cc1c[nH]c2ccccc12)NC(=O)C(CCC(=O)O)NC(=O)C(N)Cc1ccccc1)C(C)C (stereo not drawn) ?
Reply | FALSE

Ask | Try COC1=CCC2=C(CCN(C(=O)C3CC3)C2Cc2ccc(OC)c(O)c2)C1 (stereo not drawn) next.
Reply | FALSE

Ask | Another compound: CN(C)CCCc1cccc2[nH]c3c(c12)CN(C)CC3
Reply | FALSE

// data source = ChEMBL document CHEMBL1201862
